System Under Test: Trx system (thioredoxin/thioredoxin reductase) (Homo sapiens, UniProt Q16881)
Assay Remarks: Thioredoxin/thioredoxin reductase insulin reduction assay
Type: biochemical
Condition: compound at 500 μM; read-out: Inhib. (%) Trx Syst. at 500 μM
Description: Thioredoxin/thioredoxin reductase inhibition was measured using the insulin reduction assay (Stevens, M. F. G., Pallis, M., Bradshaw, T. D., Westwell, A. D., Grundy, M., Russell, N, “Induction of apoptosis without redox catastrophe by thioredoxin-inhibitory compounds”, Biochem. Pharmacol. (2003) 66, 1695-1705). […] The first part of the assay involves TrxR reducing oxidized Trx via NADPH. […]
Parameter Measured: inhibition at 500 µM (%)
Answers are plain numbers, in %.

Example entries and their recorded answers appear below.
COC(=O)c1ccc(NS(=O)(=O)c2ccc(N)cc2)c(NS(=O)(=O)c2ccc(N)cc2)c1 [(19e)]: 86.7
Cc1ccc(S(=O)(=O)Nc2ccc(NC(=O)c3cccs3)cc2NS(=O)(=O)c2ccc(C)cc2)cc1: 61.5
COC(=O)c1ccc(NS(=O)(=O)c2ccc(OC(F)(F)F)cc2)c(NS(=O)(=O)c2ccc(OC(F)(F)F)cc2)c1 [(19c)]: 43.7
Cc1ccc(S(=O)(=O)Nc2ccc(-c3noc(C(C)C)n3)cc2NS(=O)(=O)c2ccc(C)cc2)cc1 [(21d)]: 13.9
Cc1ccc(S(=O)(=O)Nc2ccc(C(N)=O)cc2NS(=O)(=O)c2ccc(C)cc2)cc1: 19.9

For each entry beneath this line, provide reported inhibition at 500 µM.
1. COC(=O)c1ccc(NS(=O)(=O)c2ccc([N+](=O)[O-])cc2)c(NS(=O)(=O)c2ccc([N+](=O)[O-])cc2)c1 [(19a)]
2. Cc1ccc(S(=O)(=O)Nc2ccc(C(=O)NC(C)(C)C)cc2NS(=O)(=O)c2ccc(C)cc2)cc1
3. Cc1ccc(S(=O)(=O)Nc2ccc(N)cc2NS(=O)(=O)c2ccc(C)cc2)cc1 [(33b)]
4. Cc1ccc(S(=O)(=O)Nc2ccc(C(=O)O)cc2NS(=O)(=O)c2ccc(C)cc2)cc1
5. Cc1ccc(S(=O)(=O)Nc2ccc(-c3ccc(F)c(C#N)c3)cc2NS(=O)(=O)c2ccc(C)cc2)cc1

Result:
1. 53.3
2. 10
3. 31.6
4. 20
5. 71.1

----------
System Under Test: Trx system (thioredoxin/thioredoxin reductase) (Homo sapiens, UniProt Q16881)
Sequence (Q16881 151-649 limits assumed): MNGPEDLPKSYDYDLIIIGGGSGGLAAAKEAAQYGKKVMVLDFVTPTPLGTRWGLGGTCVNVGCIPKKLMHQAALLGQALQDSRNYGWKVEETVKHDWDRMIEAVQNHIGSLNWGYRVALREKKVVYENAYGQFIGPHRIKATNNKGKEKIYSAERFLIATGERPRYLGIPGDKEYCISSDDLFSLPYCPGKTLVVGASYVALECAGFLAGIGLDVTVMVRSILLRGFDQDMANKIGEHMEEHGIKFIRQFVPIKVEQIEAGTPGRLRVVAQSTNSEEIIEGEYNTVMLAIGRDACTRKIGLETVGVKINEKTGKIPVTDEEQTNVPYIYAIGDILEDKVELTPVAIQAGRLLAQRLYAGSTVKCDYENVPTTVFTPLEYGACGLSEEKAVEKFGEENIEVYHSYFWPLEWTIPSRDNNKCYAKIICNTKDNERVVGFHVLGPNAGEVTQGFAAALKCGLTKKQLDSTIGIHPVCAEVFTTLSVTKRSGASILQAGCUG
Assay Remarks: Thioredoxin/thioredoxin reductase insulin reduction assay
Format: biochemical
Condition: insulin reduction assay; read-out: Trx System IC50
Parameter Measured: IC50 (µM)
Answers are plain numbers, in µM.

Cc1ccc(S(=O)(=O)Nc2ccc(CN)cc2NS(=O)(=O)c2ccc(C)cc2)cc1 [(30)]: 377
Cc1ccc(S(=O)(=O)Nc2ccc(C=O)cc2NS(=O)(=O)c2ccc(C)cc2)cc1 [(37)]: 374
COC(=O)c1ccc(NS(=O)(=O)c2ccc(Cl)cc2)c(NS(=O)(=O)c2ccc(Cl)cc2)c1 [(27)]: 277

// below: IC50 requested for another compound
Lab note: compound COC(=O)c1ccc(NS(=O)(=O)c2ccc(C(F)(F)F)cc2)c(NS(=O)(=O)c2ccc(C(F)(F)F)cc2)c1 [(19b)] tested on Trx system (thioredoxin/thioredoxin reductase) (Homo sapiens, UniProt Q16881); recorded IC50 was 429
